SYSTEM_UNDER_TEST: human A2A adenosine receptor (Homo sapiens (Human))
Sequence (P29274 whole entry): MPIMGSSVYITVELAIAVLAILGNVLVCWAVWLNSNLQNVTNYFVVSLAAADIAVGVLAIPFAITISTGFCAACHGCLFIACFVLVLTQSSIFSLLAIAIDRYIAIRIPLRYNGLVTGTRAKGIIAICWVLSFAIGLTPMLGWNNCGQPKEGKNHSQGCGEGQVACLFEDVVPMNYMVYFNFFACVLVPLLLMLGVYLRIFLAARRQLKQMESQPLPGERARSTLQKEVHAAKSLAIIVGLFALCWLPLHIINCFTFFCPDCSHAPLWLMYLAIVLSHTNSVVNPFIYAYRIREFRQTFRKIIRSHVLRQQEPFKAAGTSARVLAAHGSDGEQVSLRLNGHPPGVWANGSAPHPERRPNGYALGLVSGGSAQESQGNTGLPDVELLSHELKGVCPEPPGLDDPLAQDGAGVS
PROTOCOL_DETAILS: A2A binding affinity using radioligand binding, Method (A)
CONDITION: Method (A): filtration radioligand binding, [3H] SCH58261, membranes expressing human A2A
Returns the class for an entry based on its IC50. Class ranges: 1 (below 2 nM), 2 (2 nM to below 10 nM), 3 (10 nM or more)

These solved cases illustrate the format of a correct answer.
COc1cccc2c1nc(N)n1nc(CCS(=N)(=O)C3CC3)nc21 (single isomer, unassigned) [Example 11.1A] | 1
COc1cc(F)cc2c1nc(N)n1nc(COCc3ccc(C(O)(C(F)(F)F)C(F)(F)F)cc3)nc21 [Example 4.16] | 1
COc1cc(F)cc2c1nc(N)n1nc(COCc3ccc(C(C)(C)O)cc3)nc21 [Example 4.14] | 1
COc1cccc2c1nc(N)n1nc([C@@H](C)CO)nc21 [Example 17.3] | 3
COc1cccc2c1nc(N)n1nc(CCC3CCn4c(cnc4C4CC(F)(F)C4)C3)nc21 (single isomer, unassigned) [Example 7.5B] | 1

Query: Which class is correct for the following compound? COc1cc(F)cc2c1nc(N)n1nc(CCC3CCn4c(cnc4C4CC(F)(F)C4)C3)nc21 (single isomer, unassigned) [Example 7.3A]
Response: 2

Query: Which class is correct for the following compound? CCS(=O)(=O)CCc1nc2c3cc(F)c(OC)cc3nc(N)n2n1 [Example 13.12]
Response: 3

Query: Which class is correct for the following compound? COc1cccc2c1nc(N)n1nc(CC(C)(CO)CO)nc21 [Example 3.2]
Response: 3

Query: Which class is correct for the following compound? COc1cc(F)cc2c1nc(N)n1nc(Cc3cnn(CCCC(C)(C)O)c3)nc21 [Example 16.4]
Response: 3

Query: Which class is correct for the following compound? COc1cccc2c1nc(N)n1nc(CCC3CCc4c(nnn4C(C)C)C3)nc21 (single isomer, unassigned) [Example 5.2A]
Response: 1

Query: Which class is correct for the following compound? COc1cccc2c1nc(N)n1nc(CCS(C)(=O)=O)nc21 [Example 13.17]
Response: 3
